B1: MFF (parent)
chain: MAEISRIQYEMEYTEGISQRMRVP

Variants of: B1
procedure-summary: protein stability index of a GFP-peptide fusion (GPS, HEK-293T) (PSI 1-6); higher = more stable;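 note: lentivirally expressed fusions sorted by FACS into six bins by GFP to DsRed ratio, PSI derived from sequencing read proportions per bin multiplied by bin number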
condition-parameters: c terminus: a fixed tail appended
measure-name: protein stability index

> print(dat)
    variant.description  quantitative.result
 1                 R22D                  2.6
 2                 Q19E                 2.54
 3                 M11A                 3.68
 4                 G16P                 3.13
 5                 V23S                 2.51
 6                 V23P                 2.54
 7                  I4C                  3.6
 8                 E15G                 2.15
 9                 E15P                 1.96
10                 P24L                 2.16
11                 P24Q                 2.75
